Numbers sourced from paper PMC9635080.

# assayedTarget: yeast α-glucosidase (Saccharomyces cerevisiae)
readoutLabel: pKi
Remember the convention: pKi equals -log10 of concentration in molar.

Query: Can you share its pKi? I mean this compound: O=c1oc2ccccc2c(O)c1C(c1cccc(Oc2ccccc2)c1)c1c[nH]c2ccccc12 (stereo not shown)
Result: 3.83

----------
# assayedTarget: yeast α-glucosidase (Saccharomyces cerevisiae, UniProt P53341)
# Construct: purchased Sigma-Aldrich
# Sequence (P53341 whole entry): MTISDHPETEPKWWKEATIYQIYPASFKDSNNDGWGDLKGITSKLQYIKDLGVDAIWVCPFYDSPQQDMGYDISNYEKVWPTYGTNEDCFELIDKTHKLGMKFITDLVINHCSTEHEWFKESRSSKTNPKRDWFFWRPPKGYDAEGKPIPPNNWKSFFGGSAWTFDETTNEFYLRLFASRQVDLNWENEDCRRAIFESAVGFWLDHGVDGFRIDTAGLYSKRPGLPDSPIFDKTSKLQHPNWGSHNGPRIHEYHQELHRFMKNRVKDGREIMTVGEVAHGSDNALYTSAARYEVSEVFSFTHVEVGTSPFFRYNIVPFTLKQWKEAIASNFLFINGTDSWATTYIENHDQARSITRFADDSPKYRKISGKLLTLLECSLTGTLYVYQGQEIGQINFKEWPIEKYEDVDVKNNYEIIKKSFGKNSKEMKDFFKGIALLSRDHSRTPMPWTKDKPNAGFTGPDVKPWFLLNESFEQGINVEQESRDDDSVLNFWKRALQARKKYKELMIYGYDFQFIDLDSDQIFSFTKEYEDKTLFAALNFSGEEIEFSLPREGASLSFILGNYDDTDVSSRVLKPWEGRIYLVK
# protocolDescription: In vitro α-glucosidase inhibition assay
# Type: biochemical
readoutLabel: pIC50
Entry type: numeric. Quantity: pIC50, the -log10 of concentration in molar units.

These recorded examples may help you get a feel for the data.
Query: Can you look up the measured pIC50 of O=c1oc2ccccc2c(O)c1C(c1cccc(Oc2ccccc2)c1)c1c[nH]c2ccccc12 (centres unmarked) for me?
Result: 3.94

Query: Consider the compound O=c1oc2ccccc2c(O)c1C(c1cccc(F)c1)c1c[nH]c2ccccc12 (centres unmarked) and give its measured pIC50.
Result: 3.76

More entries:
Query: Could you tell me which pIC50 is on file for Cc1ccc(C(c2c(O)c3ccccc3oc2=O)c2c[nH]c3ccccc23)cc1 (centres unmarked) ?
Result: 3.78

Query: Which pIC50 is reported for this compound? O=c1oc2ccccc2c(O)c1C(c1ccc(F)cc1)c1c[nH]c2ccccc12 (centres unmarked)
Result: 3.32
